target: D(4) dopamine receptor (Homo sapiens) (UniProt P21917); experiment: dopamine D4 receptor antagonists (AID 743371); details: D4 receptor antagonist assay; at 10 µM; stronger effect = higher value
endpoint: inhibition (%)

>  <compound>
c1ccc(CCC2CN(Cc3ccccn3)CCO2)cc1 (stereo not given)

>  <inhibition, %>
23

$$$$

a: O=C(c1cccnc1)N1CCOC(CCc2ccccc2)C1 (stereo not given)
b: COc1ccc(NC(=O)N2CCOC(CCc3ccccc3)C2)cc1 (stereo not given)
c: Cc1cc(C)c(C(=O)N2CCOC(CCc3ccccc3)C2)c(C)c1 (stereo not given)
d: O=S(=O)(c1ccccc1OC(F)(F)F)N1CCOC(CCc2ccccc2)C1 (stereo not given)
e: Fc1ccc(CN2CCOC(CCc3ccccc3)C2)cc1 (stereo not given)
Input: Ranking field: inhibition; order: falling. Put the labels in the order asked and list them.
Output: e, a, d, b, c

1: O=S(=O)(c1ccccc1Cl)N1CCOC(CCc2ccccc2)C1 (stereo not given)
2: Clc1ccc(CN2CCOC(CCc3ccccc3)C2)cc1 (stereo not given)
Input: Between these two entries, 1 and 2 , state which has the higher inhibition. Your answer should be the label attached to the chosen record.
Output: 2
(2: 97%, 1: 13%)

A: O=C(c1ccno1)N1CCOC(CCc2ccccc2)C1 (stereo not given)
B: Clc1ccc(CN2CCO[C@@H](CCc3ccccc3)C2)cc1
C: Cc1ccc(N2CCOC(CCc3ccccc3)C2)cc1 (stereo not given)
D: FC(F)(F)Oc1cccc(CN2CCOC(CCc3ccccc3)C2)c1 (stereo not given)
E: c1ccc(CCC2CN(c3ccc4ncccc4c3)CCO2)cc1 (stereo not given)
Input: Sort low-to-high on inhibition, please. Put the labels in the order asked and list them.
Output: A, C, E, B, D

I: c1ccc(CCC2CN(c3ccccc3)CCO2)cc1 (stereo not given)
II: FC(F)(F)Oc1ccc(CN2CCOC(CCc3ccccc3)C2)cc1 (stereo not given)
III: Cc1ccc(NC(=O)N2CCOC(CCc3ccccc3)C2)cc1 (stereo not given)
IV: O=S(=O)(c1ccc(F)cc1)N1CCOC(CCc2ccccc2)C1 (stereo not given)
V: O=S(=O)(c1ccccc1)N1CCOC(CCc2ccccc2)C1 (stereo not given)
Input: Sort low-to-high on inhibition, please. Put the labels in the order asked and list them.
Output: IV, V, I, III, II

I: O=C(Nc1ccc(F)cc1)N1CCOC(CCc2ccccc2)C1 (stereo not given)
II: c1ccc(CCC2CN(Cc3cccnc3)CCO2)cc1 (stereo not given)
Input: Could you tell me which of I and II has the lower inhibition reading? Your answer should be the label attached to the chosen record.
Output: I

----------
target: D(4) dopamine receptor (Homo sapiens) (UniProt P21917); experiment: dopamine D4 receptor antagonists (AID 743371); details: D4 receptor antagonist assay; at 10 µM; stronger effect = higher value
endpoint: inhibition (%)

>  <molecule>
O=S(=O)(c1ccccc1F)N1CCOC(CCc2ccccc2)C1 (configuration not stated)

>  <subject of test>
D(4) dopamine receptor (Homo sapiens) (UniProt P21917)

>  <test value>
9

$$$$
>  <molecule>
FC(F)(F)Oc1ccc(CN2CCO[C@@H](CCc3ccccc3)C2)cc1

>  <subject of test>
D(4) dopamine receptor (Homo sapiens) (UniProt P21917)

>  <test value>
25

$$$$
>  <molecule>
Cc1ccccc1NC(=O)N1CCOC(CCc2ccccc2)C1 (configuration not stated)

>  <subject of test>
D(4) dopamine receptor (Homo sapiens) (UniProt P21917)

>  <test value>
15

$$$$
>  <molecule>
FC(F)(F)Oc1ccc(CN2CCO[C@H](CCc3ccccc3)C2)cc1

>  <subject of test>
D(4) dopamine receptor (Homo sapiens) (UniProt P21917)

>  <test value>
96

$$$$
>  <molecule>
O=C(c1ccc2c(c1)OCCO2)N1CCOC(CCc2ccccc2)C1 (configuration not stated)

>  <subject of test>
D(4) dopamine receptor (Homo sapiens) (UniProt P21917)

>  <test value>
-4

$$$$
>  <molecule>
Cc1ccccc1CN1CCOC(CCc2ccccc2)C1 (configuration not stated)

>  <subject of test>
D(4) dopamine receptor (Homo sapiens) (UniProt P21917)

>  <test value>
54

$$$$

P: COc1ccc(CN2CCOC(CCc3ccccc3)C2)cc1 (configuration not stated)
Q: O=C(Nc1cccc(F)c1)N1CCOC(CCc2ccccc2)C1 (configuration not stated)
Input: Could you tell me which of P and Q has the lower inhibition reading? Your answer should be the label attached to the chosen record.
Output: Q

P: Clc1ccc(CN2CCO[C@H](CCc3ccccc3)C2)cc1
Q: Cn1c(N2CCOC(CCc3ccccc3)C2)nc2ccccc21 (configuration not stated)
Input: Between these two entries, P and Q , state which has the higher inhibition. Your answer should be the label attached to the chosen record.
Output: P

P: c1ccc(CCC2CN(Cc3ccccc3)CCO2)cc1 (configuration not stated)
Q: O=S(=O)(c1cccc(F)c1)N1CCOC(CCc2ccccc2)C1 (configuration not stated)
Input: Could you tell me which of P and Q has the lower inhibition reading? Your answer should be the label attached to the chosen record.
Output: Q
(Q: 13%, P: 74%)
